Target: uterine OT receptors (Rattus norvegicus)
Construct: from tissue; host or cells: uterus of diethylstilbestrol dipropionate (DES)-treated rats, crude membrane preparation
Sequence (P70536 whole entry): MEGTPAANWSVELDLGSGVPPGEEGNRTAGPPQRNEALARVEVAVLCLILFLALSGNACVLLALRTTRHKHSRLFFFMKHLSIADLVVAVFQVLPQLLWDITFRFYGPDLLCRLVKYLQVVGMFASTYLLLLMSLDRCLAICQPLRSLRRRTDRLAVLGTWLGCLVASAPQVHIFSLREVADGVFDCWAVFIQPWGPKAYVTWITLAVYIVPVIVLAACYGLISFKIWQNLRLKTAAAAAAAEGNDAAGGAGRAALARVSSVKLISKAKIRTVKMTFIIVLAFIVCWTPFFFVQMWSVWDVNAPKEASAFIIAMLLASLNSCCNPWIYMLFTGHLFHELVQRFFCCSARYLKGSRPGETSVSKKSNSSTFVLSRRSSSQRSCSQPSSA
Assay: [3H]Oxytocin (OT) radioligand binding to uterine OT receptors, crude uterine membranes from DES-treated rats

given-smiles	u	IC50
COc1cc(OC2CCN(C(=O)Cc3cnc[nH]3)CC2)ccc1C(=O)N1CCC(N2C(=O)OCc3ccccc32)CC1	nM	44
COc1ccc(C(=O)N2CCC(N3C(=O)OCc4ccccc43)CC2)c([N+](=O)[O-])c1	nM	5000
O=C(Nc1ccc(CC(=O)N2CCC(N3C(=O)OCc4ccccc43)CC2)cc1)c1ccc2[nH]cnc2c1	nM	280
CCN(CC)CCS(=O)(=O)N1CCC(Oc2ccc(C(=O)N3CCC(N4C(=O)OCc5ccccc54)CC3)c(OC)c2)CC1	nM	23
